- Protocol Text: Determination of pharmacokinetic parameters following intravenous and oral administration
- Type: in vivo, rat
- Details: male, Wistar, rat, plasma; rats; intravenous administration of 0.3 mg/kg and peroral administration of 1 mg/kg
Assay Readout: half-life (h)
One number for each entry, in h.

Memo: CC1(C(F)(F)F)C(=O)Nc2nc(-c3nn(Cc4ccccc4F)c4ncc(F)cc34)nc(NCCC(F)(F)F)c21 (single isomer, unassigned) , reported half-life: 7.8
